IC50 listing for selected molecules.
SYSTEM: Src kinase (Homo sapiens)
Sequence (P12931 whole entry): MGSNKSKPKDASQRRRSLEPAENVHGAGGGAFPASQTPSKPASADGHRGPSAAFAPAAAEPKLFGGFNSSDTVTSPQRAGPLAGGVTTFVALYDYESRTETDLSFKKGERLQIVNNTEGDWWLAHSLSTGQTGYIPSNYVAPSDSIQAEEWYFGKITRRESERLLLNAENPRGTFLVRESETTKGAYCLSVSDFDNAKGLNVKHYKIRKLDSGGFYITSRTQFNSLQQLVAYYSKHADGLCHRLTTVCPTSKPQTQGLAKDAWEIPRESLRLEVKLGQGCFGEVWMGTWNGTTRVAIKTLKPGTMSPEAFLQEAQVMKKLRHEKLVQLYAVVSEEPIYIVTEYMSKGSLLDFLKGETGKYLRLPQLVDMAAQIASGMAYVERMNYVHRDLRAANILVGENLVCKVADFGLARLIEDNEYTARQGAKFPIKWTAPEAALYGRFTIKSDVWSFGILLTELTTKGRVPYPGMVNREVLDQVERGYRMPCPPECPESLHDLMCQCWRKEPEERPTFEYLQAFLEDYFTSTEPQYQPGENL
PROCEDURE_TEXT: Z'-LYTE kinase inhibition, Src
CONDITION: Src IC50 (nM), Table 4

Known results for molecules:
1. COc1ccc(-c2c(CN)n(C(C)(C)C)c3ncnc(N)c23)c(C)c1 (single isomer, unassigned) [(Sa)-8]
> 10000 nM
2. COc1ccc(-c2c(Cl)n(C(C)(C)C)c3ncnc(N)c23)c(C)c1 (atropisomer, axis not shown; (Sa)) [(Sa)-2]
> 10000 nM

Query block: Find the recorded IC50 belonging to COc1ccc(C)c(-c2c(C)n(C(C)(C)C)c3ncnc(N)c23)c1 (single isomer, unassigned) [(Ra)-5] and report it.
Result block: 6370 nM

###

Reported IC50 is given for each of the following compounds.
SYSTEM: Ret kinase (Homo sapiens, UniProt P07949)
Sequence (P07949 29-1114): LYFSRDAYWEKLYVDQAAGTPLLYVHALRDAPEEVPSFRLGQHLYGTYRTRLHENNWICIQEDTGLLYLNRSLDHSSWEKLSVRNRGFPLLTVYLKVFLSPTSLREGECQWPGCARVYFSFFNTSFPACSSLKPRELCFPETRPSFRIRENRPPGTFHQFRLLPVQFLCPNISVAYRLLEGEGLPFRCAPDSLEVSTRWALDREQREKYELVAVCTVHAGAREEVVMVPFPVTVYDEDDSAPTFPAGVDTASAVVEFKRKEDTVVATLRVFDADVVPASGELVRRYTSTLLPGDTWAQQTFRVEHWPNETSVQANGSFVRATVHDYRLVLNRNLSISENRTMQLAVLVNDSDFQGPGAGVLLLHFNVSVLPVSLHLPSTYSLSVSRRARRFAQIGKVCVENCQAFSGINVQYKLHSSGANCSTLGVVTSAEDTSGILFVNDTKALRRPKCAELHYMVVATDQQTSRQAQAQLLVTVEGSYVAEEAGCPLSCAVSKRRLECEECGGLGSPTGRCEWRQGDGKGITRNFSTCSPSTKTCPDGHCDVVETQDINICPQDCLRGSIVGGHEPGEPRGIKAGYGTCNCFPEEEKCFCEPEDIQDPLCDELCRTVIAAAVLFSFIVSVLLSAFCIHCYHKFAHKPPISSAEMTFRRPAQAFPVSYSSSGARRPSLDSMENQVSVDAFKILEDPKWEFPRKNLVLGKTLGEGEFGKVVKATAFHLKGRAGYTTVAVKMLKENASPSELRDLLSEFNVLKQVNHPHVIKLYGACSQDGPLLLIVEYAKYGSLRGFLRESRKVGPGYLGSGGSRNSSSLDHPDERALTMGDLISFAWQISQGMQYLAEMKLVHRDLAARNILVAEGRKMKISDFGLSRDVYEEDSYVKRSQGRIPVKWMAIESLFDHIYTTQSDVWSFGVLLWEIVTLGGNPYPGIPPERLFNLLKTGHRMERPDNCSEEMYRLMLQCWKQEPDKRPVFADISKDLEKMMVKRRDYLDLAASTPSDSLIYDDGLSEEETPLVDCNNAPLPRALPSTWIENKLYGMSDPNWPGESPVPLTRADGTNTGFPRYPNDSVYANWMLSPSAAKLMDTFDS
PROCEDURE_TEXT: Z'-LYTE kinase inhibition, Ret
CONDITION: Ret IC50 (nM), Table 4
Please give a number only; it is taken to be in nM.

1. Cc1c(-c2cccc3ccccc23)c2c(N)ncnc2n1C(C)(C)C (atropisomer, axis not shown; (Ra)) [(Ra)-10]
282
2. Cc1c(-c2cccc3ccccc23)c2c(N)ncnc2n1C(C)C (single isomer, unassigned) [(Ra)-9]
34
3. COc1ccc(C)c(-c2c(C)n(C(C)(C)C)c3ncnc(N)c23)c1 (single isomer, unassigned) [(Ra)-5]
731

# input for lookup
Query block: Item COc1ccc(Cl)c(-c2c(Br)n(C(C)(C)C)c3ncnc(N)c23)c1 (single isomer, unassigned) [(Ra)-6] has what recorded IC50?
Result block: 1500

###

SYSTEM: Src kinase (Homo sapiens)
PROCEDURE_TEXT: Z'-LYTE kinase inhibition, Src
CONDITION: Src IC50 (nM), Table 4
REPORTED_ENDPOINT: IC50

Some solved cases for reference:
1) COc1cc(-c2c(Cl)n(C(C)(C)C)c3ncnc(N)c23)c(Cl)cc1C (single isomer, unassigned) [(Ra)-3]
> 10000 nM
2) Cc1c(-c2cccc3c2CCCC3)c2c(N)ncnc2n1C(C)(C)C (atropisomer, axis not shown; (Ra)) [(Ra)-13]
> 10000 nM
3) Cc1c(-c2cccc3ccccc23)c2c(N)ncnc2n1C(C)(C)C (single isomer, unassigned) [(Sa)-10]
> 10000 nM

Query block: Field request: IC50 | item: Cc1c(-c2cccc3ccccc23)c2c(N)ncnc2n1C(C)C (single isomer, unassigned) [(Sa)-9]
Result block: > 10000 nM
